# measurement-target: hCA IV (Homo sapiens)
# Construct: gene CA4; recombinant, obtained in-house
# Sequence (P22748 19-284): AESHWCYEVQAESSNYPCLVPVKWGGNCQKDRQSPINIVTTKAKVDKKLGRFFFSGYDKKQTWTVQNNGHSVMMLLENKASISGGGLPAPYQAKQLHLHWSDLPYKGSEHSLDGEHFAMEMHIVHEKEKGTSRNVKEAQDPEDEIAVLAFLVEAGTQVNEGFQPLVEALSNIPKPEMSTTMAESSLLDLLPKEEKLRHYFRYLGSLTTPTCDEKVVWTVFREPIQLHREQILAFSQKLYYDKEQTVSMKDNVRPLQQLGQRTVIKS
# procedure-text: stopped-flow CO2 hydration assay
# Format: biochemical
Label MET when Ki is strictly below 400 nM; at or above that, label NOT MET.

Look over these answered cases.
compound | measurement-target | category-label
NS(=O)(=O)Nc1ccc(S(=O)(=O)N2CCCC(C(=O)N3CCN(C(c4ccccc4)c4ccccc4)CC3)C2)cc1 (centres unmarked) | hCA IV (Homo sapiens) | MET
NS(=O)(=O)Nc1ccccc1S(=O)(=O)N1CCCC(C(=O)N2CCN(C(c3ccccc3)c3ccccc3)CC2)C1 (centres unmarked) | hCA IV (Homo sapiens) | MET
NS(=O)(=O)Nc1cccc(S(=O)(=O)N2CCCC(C(=O)N3CCN(C(c4ccccc4)c4ccccc4)CC3)C2)c1 (centres unmarked) | hCA IV (Homo sapiens) | NOT MET
NS(=O)(=O)Nc1ccccc1S(=O)(=O)N1CCCC(C(=O)N2CCN(C(c3ccc(F)cc3)c3ccc(F)cc3)CC2)C1 (centres unmarked) | hCA IV (Homo sapiens) | NOT MET

Read the next record carefully.
Lab note: Ki threshold 400 nM. Does this compound come in strictly under it? NS(=O)(=O)Nc1ccc(S(=O)(=O)NCCC(=O)N2CCN(C(c3ccc(F)cc3)c3ccc(F)cc3)CC2)cc1
MET

* * *

# measurement-target: hCA I (Homo sapiens, UniProt P00915)
# Construct: recombinant, obtained in-house; cytosolic
# Sequence (P00915 2-261): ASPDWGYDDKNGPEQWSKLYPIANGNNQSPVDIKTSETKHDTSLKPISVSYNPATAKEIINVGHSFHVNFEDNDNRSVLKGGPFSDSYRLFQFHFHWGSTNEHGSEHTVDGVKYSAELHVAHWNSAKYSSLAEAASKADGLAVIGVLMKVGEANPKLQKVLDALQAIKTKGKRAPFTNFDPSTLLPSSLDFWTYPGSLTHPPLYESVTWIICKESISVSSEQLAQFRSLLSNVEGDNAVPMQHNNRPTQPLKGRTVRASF
# procedure-text: stopped-flow CO2 hydration assay
pKi: −log10 of the molar value.
Short version: pKi at least 7 is rule met, less is rule not met.

molecule | category-label
NS(=O)(=O)Nc1cccc(S(=O)(=O)N2CCCC(C(=O)N3CCN(C(c4ccc(F)cc4)c4ccc(F)cc4)CC3)C2)c1 (stereo not shown) [6k] | rule met

Moving on to another molecule below.
Answer whether pKi of NS(=O)(=O)Nc1ccccc1S(=O)(=O)NCCC(=O)N1CCN(C(c2ccc(F)cc2)c2ccc(F)cc2)CC1 [6d] is greater than or equal to 7.
rule not met

* * *

# measurement-target: hCA I (Homo sapiens)
# Construct: recombinant, obtained in-house; cytosolic
# procedure-text: stopped-flow CO2 hydration assay
reported-endpoint: Ki
The reply should read as a number followed by its unit.

compound | Ki
NS(=O)(=O)Nc1ccccc1S(=O)(=O)N1CCCC(C(=O)N2CCN(C(c3ccc(F)cc3)c3ccc(F)cc3)CC2)C1 (centres unmarked) [6j] | 2750 nM
NS(=O)(=O)Nc1ccccc1S(=O)(=O)NCCC(=O)N1CCN(C(c2ccccc2)c2ccccc2)CC1 [6a] | 286 nM
NS(=O)(=O)Nc1ccc(S(=O)(=O)N2CCCC(C(=O)N3CCN(C(c4ccc(F)cc4)c4ccc(F)cc4)CC3)C2)cc1 (centres unmarked) [6l] | 326 nM
NS(=O)(=O)Nc1ccccc1S(=O)(=O)N1CCCC(C(=O)N2CCN(C(c3ccccc3)c3ccccc3)CC2)C1 (centres unmarked) [6g] | 605 nM

Need Ki, item NS(=O)(=O)Nc1ccc(S(=O)(=O)NCCC(=O)N2CCN(C(c3ccccc3)c3ccccc3)CC2)cc1 [6c]
75.4 nM

* * *

# measurement-target: hCA IV (Homo sapiens)
# Construct: gene CA4; recombinant, obtained in-house
# procedure-text: stopped-flow CO2 hydration assay
# Type: biochemical
reported-endpoint: log10 Ki (log10 of the value in nM)
Answers are given as log10 of Ki in nM.

Example results:
compound | reported-endpoint | endpoint-result
NS(=O)(=O)Nc1ccc(S(=O)(=O)NCCC(=O)N2CCN(C(c3ccccc3)c3ccccc3)CC2)cc1 | log10 Ki | 2.09
NS(=O)(=O)Nc1ccc(S(=O)(=O)N2CCCC(C(=O)N3CCN(C(c4ccc(F)cc4)c4ccc(F)cc4)CC3)C2)cc1 (stereo not shown) | log10 Ki | 2.67
NS(=O)(=O)Nc1cccc(S(=O)(=O)NCCC(=O)N2CCN(C(c3ccc(F)cc3)c3ccc(F)cc3)CC2)c1 | log10 Ki | 2.63

What measured log10 Ki goes with NS(=O)(=O)Nc1ccccc1S(=O)(=O)NCCC(=O)N1CCN(C(c2ccc(F)cc2)c2ccc(F)cc2)CC1 ?
2.07

I have this compound here, NS(=O)(=O)Nc1cccc(S(=O)(=O)NCCC(=O)N2CCN(C(c3ccccc3)c3ccccc3)CC2)c1 , and I need its recorded log10 Ki.
3.37

Query (compound): NS(=O)(=O)Nc1cccc(S(=O)(=O)N2CCCC(C(=O)N3CCN(C(c4ccc(F)cc4)c4ccc(F)cc4)CC3)C2)c1 (stereo not shown) ; field requested: log10 Ki
3.14

// log10 Ki lookup, key: NS(=O)(=O)Nc1ccccc1S(=O)(=O)NCCC(=O)N1CCN(C(c2ccccc2)c2ccccc2)CC1
2.18
